PROTOCOL_DETAILS: Single-dose clinical study: pharmacokinetics, noncompartmental analysis
Format: in vivo, human
PROTOCOL_CONDITIONS: human, plasma; Cohort 5, 60 mg single IV bolus, hemodialysis subjects, geometric mean
OBSERVATION_TYPE: Cmax (ng/mL)
Please give a number only; it is taken to be in ng/mL.

Prompt: Give its Cmax value. Item: CC(=O)N[C@H](CSSC[C@H](N)C(=O)O)C(=O)N[C@H](C)C(=O)N[C@H](CCCNC(=N)N)C(=O)N[C@H](CCCNC(=N)N)C(=O)N[C@H](CCCNC(=N)N)C(=O)N[C@H](C)C(=O)N[C@H](CCCNC(=N)N)C(N)=O [Ac-c(C)arrrar-NH2]
Response: 1080
